Tested on: SKW3 cells

[
  {
    "Compound": "CCCC1(Cc2ccccc2)C(=O)N(c2cc(Cl)cc(Cl)c2)C(=O)N1C (centres unmarked)",
    "Cellular Toxicity Assay MTT LD50": "200 µM"
  },
  {
    "Compound": "C[C@@]1(Cc2ccc(Br)cc2)C(=O)N(c2cc(Cl)cc(Cl)c2)C(=O)N1CCCCN",
    "Cellular Toxicity Assay MTT LD50": "9 to 18 µM"
  },
  {
    "Compound": "C[C@]1(Cc2ccc(-c3cccnc3)cc2)NC(=O)N(c2cc(Cl)cc(Cl)c2)C1=O",
    "Cellular Toxicity Assay MTT LD50": "50 to 100 µM"
  },
  {
    "Compound": "C[C@@H](c1ccccc1)[C@H]1NC(=O)N(c2cc(Cl)cc(Cl)c2)C1=O",
    "Cellular Toxicity Assay MTT LD50": "125 to 250 µM"
  },
  {
    "Compound": "O=C1NC(Cc2ccccc2O)C(=O)N1c1cc(Cl)cc(Cl)c1 (centres unmarked)",
    "Cellular Toxicity Assay MTT LD50": "125 to 250 µM"
  },
  {
    "Compound": "CN1C(=O)N(c2cc(Cl)cc(Cl)c2)C(=O)[C@@]1(C)Cc1ccc(-c2ccncc2)cc1",
    "Cellular Toxicity Assay MTT LD50": "63 µM"
  },
  {
    "Compound": "CN1C(=O)N(c2cc(C(F)(F)F)cc(C(F)(F)F)c2)C(=O)[C@@]1(C)Cc1ccc(Br)cc1",
    "Cellular Toxicity Assay MTT LD50": ">400 µM"
  },
  {
    "Compound": "C[C@@]1(Cc2ccc(Br)cc2)C(=O)N(c2cc(Cl)cc(Cl)c2)C(=O)N1C(=O)CO",
    "Cellular Toxicity Assay MTT LD50": "40 to 80 µM"
  }
]

----------
Test system: SKW3 cells
Measured endpoint: Cellular Toxicity Assay MTT LD50

[
  {
    "Compound": "CN1C(=O)N(c2cc(Cl)cc(Cl)c2)C(=O)C1(C)Cc1ccc(C(F)(F)F)cc1 (stereo not shown) [Example 171]",
    "Measured endpoint": "Cellular Toxicity Assay MTT LD50",
    "Result": "100 to 200 µM"
  },
  {
    "Compound": "C[C@@]1(Cc2ccc(Br)cc2)C(=O)N(c2cc(Cl)cc(Cl)c2)C(=O)N1Cc1ccccc1O [Example 247]",
    "Measured endpoint": "Cellular Toxicity Assay MTT LD50",
    "Result": "40 to 80 µM"
  },
  {
    "Compound": "C[C@@]1(Cc2ccc(Br)cc2)C(=O)N(c2cc(Cl)cc(Cl)c2)C(=O)N1CCCCS(=O)(=O)O [Example 250]",
    "Measured endpoint": "Cellular Toxicity Assay MTT LD50",
    "Result": "100 to 200 µM"
  },
  {
    "Compound": "O=C1NC(Cc2ccc(O)cc2)C(=O)N1c1cc(Cl)cc(Cl)c1 (stereo not shown) [Example 5]",
    "Measured endpoint": "Cellular Toxicity Assay MTT LD50",
    "Result": "250 to 500 µM"
  },
  {
    "Compound": "CCN1C(=O)N(c2cc(Cl)cc(Cl)c2)C(=O)C1(C)Cc1ccccc1 (stereo not shown) [Example 89]",
    "Measured endpoint": "Cellular Toxicity Assay MTT LD50",
    "Result": "500 µM"
  },
  {
    "Compound": "CC1(Cc2c[nH]c3ccccc23)NC(=O)N(c2cc(Cl)cc(Cl)c2)C1=O (stereo not shown) [Example 28]",
    "Measured endpoint": "Cellular Toxicity Assay MTT LD50",
    "Result": "100 to 200 µM"
  },
  {
    "Compound": "CN1C(=S)N(c2cc(Cl)cc(Cl)c2)C(=O)C1(C)Cc1ccc(Br)cc1 (stereo not shown) [Example 80]",
    "Measured endpoint": "Cellular Toxicity Assay MTT LD50",
    "Result": ">400 µM"
  }
]

----------
Reported Kd values are given for each entry in this list.
Target or system: interaction of ICAM-1 with the Leukointegrin CD18/CD11a (LFA-1) (Homo sapiens, UniProt P05107+P20701)
Construct: endogenous in cells; sICAM-1: made in house, secreted from transfected CHO DUX cells
Sequence (P20701 26-1170): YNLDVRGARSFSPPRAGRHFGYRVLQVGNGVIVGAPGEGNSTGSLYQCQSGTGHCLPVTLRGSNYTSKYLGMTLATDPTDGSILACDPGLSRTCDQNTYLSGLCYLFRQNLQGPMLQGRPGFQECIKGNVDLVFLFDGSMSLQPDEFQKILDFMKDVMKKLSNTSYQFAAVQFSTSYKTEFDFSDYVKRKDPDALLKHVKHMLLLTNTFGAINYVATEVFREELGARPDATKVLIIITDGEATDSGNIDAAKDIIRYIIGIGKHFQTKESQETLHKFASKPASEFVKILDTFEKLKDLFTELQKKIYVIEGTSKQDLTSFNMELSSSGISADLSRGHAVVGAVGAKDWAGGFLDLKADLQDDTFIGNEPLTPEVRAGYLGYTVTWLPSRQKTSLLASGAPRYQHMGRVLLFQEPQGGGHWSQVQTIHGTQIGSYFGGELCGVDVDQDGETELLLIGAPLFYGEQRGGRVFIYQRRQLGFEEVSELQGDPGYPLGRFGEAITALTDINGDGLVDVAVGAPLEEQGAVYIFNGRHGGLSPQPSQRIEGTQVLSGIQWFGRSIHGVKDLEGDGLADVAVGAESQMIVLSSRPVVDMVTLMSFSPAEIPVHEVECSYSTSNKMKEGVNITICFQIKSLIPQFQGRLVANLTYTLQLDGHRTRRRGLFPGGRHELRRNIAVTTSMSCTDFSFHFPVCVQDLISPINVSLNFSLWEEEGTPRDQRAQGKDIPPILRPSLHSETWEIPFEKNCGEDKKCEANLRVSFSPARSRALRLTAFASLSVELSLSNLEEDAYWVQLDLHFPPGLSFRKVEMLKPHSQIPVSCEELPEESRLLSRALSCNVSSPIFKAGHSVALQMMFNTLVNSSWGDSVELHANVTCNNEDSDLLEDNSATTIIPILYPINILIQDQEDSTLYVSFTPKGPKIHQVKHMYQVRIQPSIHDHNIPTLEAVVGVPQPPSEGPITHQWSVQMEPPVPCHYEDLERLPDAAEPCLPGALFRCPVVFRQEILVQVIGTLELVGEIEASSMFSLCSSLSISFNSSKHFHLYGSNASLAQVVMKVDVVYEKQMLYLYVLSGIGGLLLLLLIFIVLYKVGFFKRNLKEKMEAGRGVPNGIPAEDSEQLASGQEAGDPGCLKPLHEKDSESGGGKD
Sequence (P05107 23-769): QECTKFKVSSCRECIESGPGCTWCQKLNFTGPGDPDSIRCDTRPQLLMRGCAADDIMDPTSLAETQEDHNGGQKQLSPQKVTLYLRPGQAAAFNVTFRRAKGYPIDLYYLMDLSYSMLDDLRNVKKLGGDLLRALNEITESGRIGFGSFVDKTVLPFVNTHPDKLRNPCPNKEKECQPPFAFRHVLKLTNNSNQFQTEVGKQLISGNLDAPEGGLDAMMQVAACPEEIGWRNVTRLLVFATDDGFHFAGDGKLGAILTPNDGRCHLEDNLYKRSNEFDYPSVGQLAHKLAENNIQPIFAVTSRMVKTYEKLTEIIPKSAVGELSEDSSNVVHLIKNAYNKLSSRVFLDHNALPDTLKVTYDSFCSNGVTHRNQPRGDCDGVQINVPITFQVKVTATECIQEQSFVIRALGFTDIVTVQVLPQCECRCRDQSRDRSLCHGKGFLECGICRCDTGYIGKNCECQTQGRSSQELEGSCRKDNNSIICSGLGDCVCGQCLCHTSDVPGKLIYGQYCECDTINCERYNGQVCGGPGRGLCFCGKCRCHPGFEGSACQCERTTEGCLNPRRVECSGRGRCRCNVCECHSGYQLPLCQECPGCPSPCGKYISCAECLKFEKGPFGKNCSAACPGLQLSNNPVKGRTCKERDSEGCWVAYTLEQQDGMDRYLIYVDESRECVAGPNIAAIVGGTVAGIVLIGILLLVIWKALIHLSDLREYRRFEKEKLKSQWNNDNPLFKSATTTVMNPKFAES
Experiment: Assay to determine inhibition of LFA-1 binding to ICAM-1 (immunopurified LFA-1 on plate-bound sICAM-1, ELISA readout)
Measured endpoint: Kd (nM)

[
  {
    "Molecule": "CC(C)N1C(=O)N(c2cc(Cl)cc(Cl)c2)C(=O)[C@]1(C)Cc1ccc(Br)cc1 [Example 274]",
    "Measured endpoint": "Kd",
    "Result": 140
  },
  {
    "Molecule": "C[C@@]1(Cc2ccc(Br)cc2)C(=O)N(c2cc(Cl)cc(Cl)c2)C(=O)N1CCCCCP(=O)(O)O [Example 222]",
    "Measured endpoint": "Kd",
    "Result": 60
  },
  {
    "Molecule": "C[C@@]1(Cc2ccc(Br)cc2)C(=O)N(c2cc(Cl)cc(Cl)c2)C(=O)N1COC(=O)C(CO)CO [Example 238]",
    "Measured endpoint": "Kd",
    "Result": 80
  },
  {
    "Molecule": "C[C@@]1(Cc2ccc(Br)cc2)C(=O)N(c2cc(Cl)cc(Cl)c2)C(=O)N1CCCCCCP(=O)(O)O [Example 220]",
    "Measured endpoint": "Kd",
    "Result": 270
  },
  {
    "Molecule": "C[C@@]1(Cc2ccc(Br)cc2)C(=O)N(c2cc(Cl)cc(Cl)c2)C(=O)N1C1CCNCC1 [Example 224]",
    "Measured endpoint": "Kd",
    "Result": 280
  },
  {
    "Molecule": "Cc1cc(C)cc(-c2ccc(CC3(C)NC(=O)N(c4cc(Cl)cc(Cl)c4)C3=O)cc2)c1 (stereo not drawn) [Example 210]",
    "Measured endpoint": "Kd",
    "Result": 540
  },
  {
    "Molecule": "C[C@@]1(Cc2ccc(Br)cc2)C(=O)N(c2cc(Cl)cc(Cl)c2)C(=O)N1Cc1ccccc1O [Example 247]",
    "Measured endpoint": "Kd",
    "Result": 230
  },
  {
    "Molecule": "CN1C(=O)N(c2cc(C(F)(F)F)cc(C(F)(F)F)c2)C(=O)[C@]1(C)Cc1ccccc1 [Example 268]",
    "Measured endpoint": "Kd",
    "Result": 1590
  },
  {
    "Molecule": "C[C@@]1(Cc2ccc(Br)cc2)C(=O)N(c2cc(Cl)cc(Cl)c2)C(=O)N1CCCS(=O)(=O)O [Example 249]",
    "Measured endpoint": "Kd",
    "Result": 160
  },
  {
    "Molecule": "C[C@@]1(Cc2ccc(Br)cc2)C(=O)N(c2cc(Cl)cc(Cl)c2)C(=O)N1Cc1ccccc1C(=O)O [Example 239]",
    "Measured endpoint": "Kd",
    "Result": 280
  },
  {
    "Molecule": "C[C@@]1(Cc2ccc(Br)cc2)C(=O)N(c2cc(Cl)cc(Cl)c2)C(=O)N1CCCCCC(=O)O [Example 226]",
    "Measured endpoint": "Kd",
    "Result": 70
  },
  {
    "Molecule": "C[C@@]1(Cc2ccc(Br)cc2)C(=O)N(c2cc(Cl)cc(Cl)c2)C(=O)N1Cc1ccc(C(=N)N)cc1 [Example 242]",
    "Measured endpoint": "Kd",
    "Result": 400
  },
  {
    "Molecule": "COc1cccc(-c2ccc(CC3(C)NC(=O)N(c4cc(Cl)cc(Cl)c4)C3=O)cc2)c1 (stereo not drawn) [Example 214]",
    "Measured endpoint": "Kd",
    "Result": 90
  },
  {
    "Molecule": "CC1(Cc2ccccc2)C(=O)N(c2cc(Cl)cc(Cl)c2)C(=O)N1CCCCC(=O)O (stereo not drawn) [Example 219]",
    "Measured endpoint": "Kd",
    "Result": 1030
  },
  {
    "Molecule": "C[C@@]1(Cc2ccc(Br)cc2)C(=O)N(c2cc(Cl)cc(Cl)c2)C(=O)N1CCCCCNC(=N)N [Example 264]",
    "Measured endpoint": "Kd",
    "Result": 120
  },
  {
    "Molecule": "CN1C(=O)N(c2cc(C(F)(F)F)cc(C(F)(F)F)c2)C(=O)[C@@]1(C)Cc1ccccc1 [Example 267]",
    "Measured endpoint": "Kd",
    "Result": 400
  },
  {
    "Molecule": "CC1(Cc2ccc(-c3cccc(F)c3)cc2)NC(=O)N(c2cc(Cl)cc(Cl)c2)C1=O (stereo not drawn) [Example 212]",
    "Measured endpoint": "Kd",
    "Result": 70
  },
  {
    "Molecule": "C[C@@]1(Cc2ccc(Br)cc2)C(=O)N(c2cc(Cl)cc(Cl)c2)C(=O)N1C(=O)[C@@H]1CCCN1 [Example 234]",
    "Measured endpoint": "Kd",
    "Result": 410
  },
  {
    "Molecule": "C[C@@]1(Cc2ccc(Br)cc2)C(=O)N(c2cc(Cl)cc(Cl)c2)C(=O)N1CCC[N+](C)(C)C [Example 254]",
    "Measured endpoint": "Kd",
    "Result": 80
  },
  {
    "Molecule": "CN1C(=O)N(c2cc(Cl)cc(Cl)c2)C(=O)[C@@]1(C)Cc1ccccc1 [Example 266]",
    "Measured endpoint": "Kd",
    "Result": 140
  },
  {
    "Molecule": "CN1C(=O)N(c2cc(Cl)cc(Cl)c2)C(=O)C1(C)Cc1ccc(Br)cc1O (stereo not drawn) [Example 248]",
    "Measured endpoint": "Kd",
    "Result": 370
  },
  {
    "Molecule": "C[C@@]1(Cc2ccc(Br)cc2)C(=O)N(c2cc(Cl)cc(Cl)c2)C(=O)N1C(=O)[C@H](N)CO [Example 232]",
    "Measured endpoint": "Kd",
    "Result": 1240
  },
  {
    "Molecule": "C[C@@]1(Cc2ccc(Br)cc2)C(=O)N(c2cc(Cl)cc(Cl)c2)C(=O)N1Cc1cccc(C(=O)O)c1 [Example 229]",
    "Measured endpoint": "Kd",
    "Result": 300
  },
  {
    "Molecule": "C[C@@]1(Cc2ccc(Br)cc2)C(=O)N(c2cc(Cl)cc(Cl)c2)C(=O)N1C1CCN(CP(=O)(O)O)CC1 [Example 236]",
    "Measured endpoint": "Kd",
    "Result": 330
  },
  {
    "Molecule": "CN1C(=O)N(c2cc(Cl)cc(Cl)c2)C(=O)C1(C)Cc1ccc(C(=O)N2CCCCC2)cc1 (stereo not drawn) [Example 259]",
    "Measured endpoint": "Kd",
    "Result": 3540
  },
  {
    "Molecule": "C[C@@]1(Cc2ccc(Br)cc2)C(=O)N(c2cc(Cl)cc(Cl)c2)C(=O)N1CCCC(=O)O [Example 227]",
    "Measured endpoint": "Kd",
    "Result": 180
  },
  {
    "Molecule": "C[C@@]1(Cc2ccc(Br)cc2)C(=O)N(c2cc(Cl)cc(Cl)c2)C(=O)N1CCCCS(=O)(=O)O [Example 250]",
    "Measured endpoint": "Kd",
    "Result": 40
  },
  {
    "Molecule": "O=C1NC(CCc2ccc(I)cc2)C(=O)N1c1cc(Cl)cc(Cl)c1 (stereo not drawn) [Example 217]",
    "Measured endpoint": "Kd",
    "Result": 1780
  },
  {
    "Molecule": "C[C@@]1(Cc2ccc(Br)cc2)C(=O)N(c2cc(Cl)cc(Cl)c2)C(=O)N1Cc1ccc(O)cc1 [Example 246]",
    "Measured endpoint": "Kd",
    "Result": 250
  },
  {
    "Molecule": "C[C@@]1(Cc2ccc(Br)cc2)C(=O)N(c2cc(Cl)cc(Cl)c2)C(=O)N1CCCNC(=N)N [Example 262]",
    "Measured endpoint": "Kd",
    "Result": 80
  }
]
